Biological target: mouse TAAR1 (Mus musculus (Mouse))
Sequence (Q923Y8 whole entry): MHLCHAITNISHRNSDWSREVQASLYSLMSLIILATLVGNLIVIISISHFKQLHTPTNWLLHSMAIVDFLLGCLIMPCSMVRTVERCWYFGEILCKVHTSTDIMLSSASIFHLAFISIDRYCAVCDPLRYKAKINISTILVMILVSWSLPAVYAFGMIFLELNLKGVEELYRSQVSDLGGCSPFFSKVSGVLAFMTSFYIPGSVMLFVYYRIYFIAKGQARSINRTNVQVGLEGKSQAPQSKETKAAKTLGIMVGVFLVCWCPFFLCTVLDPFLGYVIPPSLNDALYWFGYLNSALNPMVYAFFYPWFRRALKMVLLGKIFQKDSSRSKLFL
Assay: Radioligand binding assay on mouse TAAR1
Details: mouse TAAR1 (first value of the cell), HEK-293 membranes; read-out: Ki (μM) mouse/rat
So basically: is Ki under 0.01 µM? Then criterion met. Not under? Then criterion not met.

Compound	Class Name
Cc1cc(Nc2ccc(C3CNCCO3)cc2C)ncc1Cl (racemic) [Example 84]	criterion met
Brc1ccc(CNc2ccc([C@H]3CNCCO3)cc2)nc1 [Example 27]	criterion not met
CCOc1cnc(Nc2ccc([C@@H]3CCCNC3)cc2)nc1 [Example 114]	criterion not met
Fc1cc([C@H]2CNCCO2)ccc1Nc1ncc(Cl)cn1 [Example 131]	criterion met
Clc1cnc(Nc2ccc([C@H]3CNCCO3)cc2)c(Cl)c1 [Example 58]	criterion not met
CCCc1cnc(Nc2ccc([C@@H]3CNCCO3)cc2F)nc1 [Example 128]	criterion met
Fc1cc(Cl)cnc1Nc1ccc([C@H]2CNCCO2)cc1 [Example 77]	criterion met
Fc1cc(Cl)ccc1CNc1ccc([C@H]2CNCCO2)cc1 [Example 35]	criterion met
c1nc(Nc2ccc(C3CNCCO3)cn2)ncc1C1CC1 (racemic) [Example 92]	criterion not met
c1coc(-c2cnc(Nc3ccc([C@@H]4CNCCO4)cc3)nc2)c1 [Example 148]	criterion met

* * *

Target: UniProt:Q923Y8
Assay: Radioligand binding assay on mouse TAAR1
Conditions: mouse TAAR1 (first value of the cell), HEK-293 membranes; read-out: Ki (μM) mouse/rat
So basically: is Ki under 0.005 µM? Then true (1). Not under? Then false (0).

Compound	Assayed System	Class Name
Clc1cc(Nc2ncc(C3CC3)cn2)ccc1[C@@H]1CNCCO1 [Example 194]	UniProt:Q923Y8	true (1)
CCOc1cnc(Nc2ccc([C@@H]3CNCCO3)cc2F)nc1 [Example 132]	UniProt:Q923Y8	true (1)
Cc1cc(C2CNCCO2)cnc1Nc1ccc(Br)cn1 (racemic) [Example 120]	UniProt:Q923Y8	false (0)
CCc1cnc(Nc2ccc([C@@H]3CNCCO3)cc2C)nc1 [Example 106]	UniProt:Q923Y8	false (0)
Clc1ccc(CNc2ccc(C3CNCCO3)cc2)cc1 (racemic) [Example 9]	UniProt:Q923Y8	false (0)
c1ccc(-c2cc(Nc3ccc([C@H]4CNCCO4)cc3)n[nH]2)cc1 [Example 113]	UniProt:Q923Y8	true (1)
FC(F)(F)c1cc(Nc2ccc([C@@H]3CNCCO3)cc2)ncn1 [Example 198]	UniProt:Q923Y8	false (0)
CC(C)Oc1cnc(Nc2ccc([C@H]3CNCCO3)cc2)nc1 [Example 122]	UniProt:Q923Y8	false (0)
N#Cc1ccnc(Nc2ccc([C@@H]3CNCCO3)cc2)n1 [Example 181]	UniProt:Q923Y8	false (0)
FC(F)Cn1ccc(Nc2ccc(C3CNCCO3)cc2)n1 (racemic) [Example 150]	UniProt:Q923Y8	false (0)
Fc1cc([C@@H]2CNCCO2)ccc1Nc1ncc(OCC(F)(F)F)cn1 [Example 144]	UniProt:Q923Y8	true (1)
COCCOc1cnc(Nc2ccc([C@@H]3CNCCO3)cc2F)nc1 [Example 151]	UniProt:Q923Y8	false (0)
Cc1cc(Nc2ccc([C@H]3CNCCO3)cc2)ncc1Cl [Example 83]	UniProt:Q923Y8	true (1)
Cc1cc([C@@H]2CNCCO2)ccc1Nc1ncc(C(F)(F)F)cn1 [Example 166]	UniProt:Q923Y8	false (0)
Fc1cc([C@H]2CNCCO2)ccc1Nc1ncc(OCC(F)(F)F)cn1 [Example 145]	UniProt:Q923Y8	true (1)
c1cc([C@@H]2CNCCO2)ccc1Nc1ncc(OCC2CC2)cn1 [Example 125]	UniProt:Q923Y8	true (1)
